test system: K4 kissing-loop RNA reporter; experiment: apparent KD of K4 kissing-loop reporter; higher = weaker reporter binding; conditions: Eterna round: R107; input ligand: tryptophan 2.4 mM;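 also: bound reporter read as fluorescence of individual clusters on recovered sequencing chips by microscopy, with normalized cluster intensities fitted with a binding model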

[
  {
    "sequence-input": "AGCAGGAGUGAUGUUCCUGUGGCAUAAGUUCGAGGACCGGUACGGCCGCCACUCGUAACAUUAAUCCGUCCUUGAUCAGAUAAGA [theeternabot_sameState_KL_Trp_A_12]",
    "test-system": "K4 kissing-loop RNA reporter",
    "apparent KD of K4 kissing-loop reporter, nM": 101
  },
  {
    "sequence-input": "GCGUGCCAUGCAGGAUAUAGUUGUUCGAGUGAUGUUCGAGCCUUGCUAAGUUCGGAGCAUCAGCUUCUAGAAGGGCAUGGCACGC",
    "test-system": "K4 kissing-loop RNA reporter",
    "apparent KD of K4 kissing-loop reporter, nM": 347
  },
  {
    "sequence-input": "AGUGGAACUUGCAGGUAUCCACAACUGGAUACCAGCUCGGAAACGAGCCCUUGGCAGCCAGAUCUUGCAGUGAUGUUGCAAGUUC [Design10]",
    "test-system": "K4 kissing-loop RNA reporter",
    "apparent KD of K4 kissing-loop reporter, nM": 381
  },
  {
    "sequence-input": "UGUCAUUGGUCGGCCGCCACUUCGUGUGGAGUGAUGUUUUGUAGAUUGUGUUGAAAGGUAUGGUGAAGGACCGGGACCGAUGACU [FiskerMod 21 - Jieux - Same State - Tryptophan B]",
    "test-system": "K4 kissing-loop RNA reporter",
    "apparent KD of K4 kissing-loop reporter, nM": 997
  },
  {
    "sequence-input": "AAGCCAGUGAUGUUGGCAAAAUAAACUGAAGGAGCGCGUGAAAACGCAGGUAGGUCGCAGAACCUUGCCAACUAACACGAAAGUG [Ex Arginine A K4 19]",
    "test-system": "K4 kissing-loop RNA reporter",
    "apparent KD of K4 kissing-loop reporter, nM": 287
  },
  {
    "sequence-input": "UUGUUUGGUUGAGAGGUUGGGCGAGAUGAUACCAGUAUAUAAGAAUACCCUUGGCAGCAUAAGAAAGAUAUAGUGAUGUUGUAUA [SSTheophA.M]",
    "test-system": "K4 kissing-loop RNA reporter",
    "apparent KD of K4 kissing-loop reporter, nM": 457
  },
  {
    "sequence-input": "UCGCACCUGUGGGCGAGGCCUAUAAUUGUCAAGGAUAUAGAUCAUUCUAGAAGGUGACACUUCGCGAGUGAUGUUCGGGAAAUGC [theeternabot_sameState_KL_FMN_A_8]",
    "test-system": "K4 kissing-loop RNA reporter",
    "apparent KD of K4 kissing-loop reporter, nM": 179
  },
  {
    "sequence-input": "AAUCAAUACAGAAGGAGCGUGACAUUUGCUAUUGUAAUUUUAGCUAGUGAUGUUAGCAUUUCACAGGUAGGUCGCUGUACAUUUA [JR_SSArginiB_Sub010]",
    "test-system": "K4 kissing-loop RNA reporter",
    "apparent KD of K4 kissing-loop reporter, nM": 259
  },
  {
    "sequence-input": "GGCACUUUUGGUAGACACCAUCUACCUCUAUAGGAUAUGCCGAAAGGCAGAAGGAUAGACCUACAGAGUGAUGUUCUGCGUGCCU",
    "test-system": "K4 kissing-loop RNA reporter",
    "apparent KD of K4 kissing-loop reporter, nM": 849
  },
  {
    "sequence-input": "AGUGUGCAAAAGCACACUCAGAACAAGGACAAGGAUAUCUACUAAUAGAGAAGGUGUCCUUUCCUUAGUGAUGUUAAGGAUCUGA [Omei KL FMN A SS D v4]",
    "test-system": "K4 kissing-loop RNA reporter",
    "apparent KD of K4 kissing-loop reporter, nM": 564
  },
  {
    "sequence-input": "AGAGAUAUAUGAGGAUAUGGGAUAGUUAAUGAGUUAGUUUUAGUGUUGUUUGGUUAGUGAUGUUAUUUAGAAGGCGUGAGUGAUG [rxxvgmullin]",
    "test-system": "K4 kissing-loop RNA reporter",
    "apparent KD of K4 kissing-loop reporter, nM": 71.1
  },
  {
    "sequence-input": "GCCGUACGCAUGGAUACCAGUCUUAGAGUGAUGUUCUAAACGAUUGCGCCUGGAUCAAUGGACCCUUGGCAGCCAUGCGUACGGC",
    "test-system": "K4 kissing-loop RNA reporter",
    "apparent KD of K4 kissing-loop reporter, nM": 154
  },
  {
    "sequence-input": "CAUACGCAUGGAGGAUAUGAGAUUACUCAUAUUACCCUGUAACAGGUAUCUCAGUGAUGUUGAGACUCAGAAGGCCAUGUGUAUG [Ex FMN B 22]",
    "test-system": "K4 kissing-loop RNA reporter",
    "apparent KD of K4 kissing-loop reporter, nM": 387
  },
  {
    "sequence-input": "GCAUCCGAUGCAGGAUAUAGAUGAACGAGUGAUGUUUGGAAUUUAUGUCCAAAGCCUACGAUCAAACUAGAAGGGCAUCGGAUGC",
    "test-system": "K4 kissing-loop RNA reporter",
    "apparent KD of K4 kissing-loop reporter, nM": 192
  },
  {
    "sequence-input": "AAAUUCUUUUUUUUAUAUAACGAUUCAGAAGGAGCGAGGUAGAACUCAGGUAGGUCGCUGAAUAUAAGACUAGUGAUGUUAGUAA [#01 K4 Arginine A Same State]",
    "test-system": "K4 kissing-loop RNA reporter",
    "apparent KD of K4 kissing-loop reporter, nM": 156
  },
  {
    "sequence-input": "GCCUAGGCUCGAAAGAGCCUAGGCUGGGCUCAGGAUAUCCGGAAACGGAGAAGGGAGGGACUAGUGAUGUUAGGGAUUCCCUAUG",
    "test-system": "K4 kissing-loop RNA reporter",
    "apparent KD of K4 kissing-loop reporter, nM": 203
  },
  {
    "sequence-input": "UCGAAAUGCGUCUCCUAGUUUCUCCGGGAAGGAGCGUGGAUAACCGCAGGUAGGUCGCCCGGGAGCCGGACCAGUGAUGUUGGUC [Exclusion Arginine A Gf 30]",
    "test-system": "K4 kissing-loop RNA reporter",
    "apparent KD of K4 kissing-loop reporter, nM": 164
  },
  {
    "sequence-input": "AAAAGAAGAAGUGAUACCAGACAAGCAGUGAUGUUGCGCCAAAGUGAGUGAUGUUCACCAGUCCCUUGGCAGCACAUGCCAAAAG [Same State Theophylline B GF 5]",
    "test-system": "K4 kissing-loop RNA reporter",
    "apparent KD of K4 kissing-loop reporter, nM": 933
  },
  {
    "sequence-input": "AGCAGUCACUCGAAAAACCAUCGAAGAUGGCGAGGACCGGUACGGCCGCCACUCGGAGUGAUGUUCCGAAGACUGCAAAAUAAAA [#SwitchBubble 15]",
    "test-system": "K4 kissing-loop RNA reporter",
    "apparent KD of K4 kissing-loop reporter, nM": 435
  },
  {
    "sequence-input": "AUAAUAUUGCGAGGAUAUCCUUCCCACGUCGAAGUACCGUGCUUGAUGGAGUGAUGUUCGAUCAGAGGAGAAGGCGCGGUGUUGU [Same State FMN B GF23]",
    "test-system": "K4 kissing-loop RNA reporter",
    "apparent KD of K4 kissing-loop reporter, nM": 571
  }
]
